Data provenance is patent US20060069132A1.

Exercise: for every item that follows, state its recorded Plant response rating, Cupgrass, Woolly.
Test system: woolly cupgrass
Test Protocol: Test C pre-/postemergence herbicide test
Assay type: in vivo, Eriochloa villosa
Experimental Context: 62 g ai/ha; preemergence; scale 0 to 100
Please state the value as a number alone, without comment.

[in] Would you mind telling me what Plant response rating, Cupgrass, Woolly value was observed for CCn1nc(C(C)(C)C)cc1C(=O)Nc1cccc(OC(F)F)c1 [Compound 332] ?
[out] 0

[in] Would you mind telling me what Plant response rating, Cupgrass, Woolly value was observed for CCc1nn(C(C)(C)C)cc1C(=O)Nc1cc(C(=O)N(CC)CC)ccc1F [Compound 223] ?
[out] 0

[in] Would you mind telling me what Plant response rating, Cupgrass, Woolly value was observed for CCOC(=O)c1cccc(NC(=O)c2nn(C(C)(C)CC)nc2CC)c1 [Compound 375] ?
[out] 60

[in] Would you mind telling me what Plant response rating, Cupgrass, Woolly value was observed for CCNC(=O)c1cccc(NC(=O)c2sc(C(C)(C)C)nc2CC)n1 [Compound 213] ?
[out] 0

[in] Would you mind telling me what Plant response rating, Cupgrass, Woolly value was observed for CCNC(=O)c1cccc(NC(=O)c2nn(C(C)(C)C)nc2C)c1 [Compound 392] ?
[out] 30

[in] Would you mind telling me what Plant response rating, Cupgrass, Woolly value was observed for C=CCNC(=O)c1cccc(NC(=O)c2nn(C(C)(C)C)nc2CC)c1 [Compound 414] ?
[out] 0

[in] Would you mind telling me what Plant response rating, Cupgrass, Woolly value was observed for CCc1nn(C(C)(C)C)nc1C(=O)Nc1cccc(C(=S)N(C)C)c1 [Compound 395] ?
[out] 85

[in] Would you mind telling me what Plant response rating, Cupgrass, Woolly value was observed for CCc1nn(C(C)(C)C)nc1C(=S)Nc1cccc(C(=S)N(C)C)c1 [Compound 396] ?
[out] 60

###

Exercise: for every item that follows, state its recorded Barnyardgrass plant response rating.
System: barnyardgrass
Test Protocol: Test A pre-/postemergence herbicide test
Type: in vivo, Echinochloa crus-galli
Experimental Context: Preemergence, 2000 g ai/ha; 0 to 100 scale, 0 no effect, 100 complete control
Excerpt: […] Plants ranged in height from 2 to 10 cm and were in the one- to two-leaf stage for the postemergence treatment. Treated plants and untreated controls were maintained in a greenhouse for approximately ten days, after which time all treated plants were compared to untreated controls and visually evaluated for injury. […]
Please state the value as a number alone, without comment.

[in] Would you mind telling me what Barnyardgrass plant response rating value was observed for CCCCOC(=O)c1cccc(NC(=O)c2cc(C(C)(C)C)nn2CC)c1 [Compound 86] ?
[out] 0

[in] Would you mind telling me what Barnyardgrass plant response rating value was observed for CCCOC(=O)c1cccc(NC(=O)c2cc(C(C)(C)C)nn2CC)c1C [Compound 90] ?
[out] 50

[in] Would you mind telling me what Barnyardgrass plant response rating value was observed for C=CCNC(=O)c1cccc(NC(=O)c2cc(C(C)(C)C)nn2CC)c1 [Compound 46] ?
[out] 100

[in] Would you mind telling me what Barnyardgrass plant response rating value was observed for CCn1nc(C(C)(C)C)cc1C(=O)Nc1cccc2c1CCN(C1CC1)C2=O [Compound 64] ?
[out] 85

###

System: velvetleaf
Test Protocol: Test A pre-/postemergence herbicide test
Format: in vivo, Abutilon theophrasti
Experimental Context: Postemergence, 2000 g ai/ha; 0 to 100 scale, 0 no effect, 100 complete control
# note: exactly 50 is not below, so it is No; use Yes for Plant response rating, Velvetleaf strictly under it

[in] Determine whether this molecule shows Plant response rating, Velvetleaf lower than 50 (ties excluded): CCn1nc(C(C)(C)C)cc1C(=O)Nc1cc(OC)ccc1F
[out] Yes

[in] Determine whether this molecule shows Plant response rating, Velvetleaf lower than 50 (ties excluded): CCNC(=O)c1cccc(NC(=O)c2sc(C(C)(C)C)nc2CC)c1
[out] No

[in] Determine whether this molecule shows Plant response rating, Velvetleaf lower than 50 (ties excluded): C=Cn1nc(C(C)(C)C)cc1C(=O)Nc1cccc(C(=O)NCC)c1
[out] Yes

[in] Determine whether this molecule shows Plant response rating, Velvetleaf lower than 50 (ties excluded): CCn1nc(C(C)(C)C)cc1C(=O)Nc1cccc(SC(F)(F)F)c1
[out] Yes

[in] Determine whether this molecule shows Plant response rating, Velvetleaf lower than 50 (ties excluded): CCNC(=O)c1cccc(NC(=O)c2sc(C(C)(C)C)nc2CC)n1
[out] Yes

[in] Determine whether this molecule shows Plant response rating, Velvetleaf lower than 50 (ties excluded): C=CCN(C)C(=O)c1cccc(NC(=O)c2cc(C(C)(C)C)nn2CC)c1
[out] No

[in] Determine whether this molecule shows Plant response rating, Velvetleaf lower than 50 (ties excluded): CC(C)NS(=O)(=O)c1cccc(NC(=O)c2cc(C(C)(C)C)nn2C)c1
[out] Yes

[in] Determine whether this molecule shows Plant response rating, Velvetleaf lower than 50 (ties excluded): C#CCOC(=O)c1cccc(NC(=O)c2cc(C(C)(C)C)nn2C)n1
[out] Yes

[in] Determine whether this molecule shows Plant response rating, Velvetleaf lower than 50 (ties excluded): CCCOC(=O)c1cccc(NC(=O)c2cc(C(C)(C)C)nn2CC)c1C
[out] Yes

[in] Determine whether this molecule shows Plant response rating, Velvetleaf lower than 50 (ties excluded): CCOC(=O)c1cccc(NC(=O)c2cc(C(C)(C)C)nn2CC)c1C
[out] No

[in] Determine whether this molecule shows Plant response rating, Velvetleaf lower than 50 (ties excluded): CCNC(=O)c1cccc(NC(=O)c2sc(C(C)(C)C)nc2C)c1
[out] Yes

[in] Determine whether this molecule shows Plant response rating, Velvetleaf lower than 50 (ties excluded): C=Cn1nc(C(C)(C)C)cc1C(=O)Nc1cccc(C(C)=O)c1
[out] Yes

[in] Determine whether this molecule shows Plant response rating, Velvetleaf lower than 50 (ties excluded): C=CCNC(=O)c1cccc(NC(=O)c2cc(C(C)(C)C)nn2CC)c1
[out] No

[in] Determine whether this molecule shows Plant response rating, Velvetleaf lower than 50 (ties excluded): CCOC(=O)c1cccc(NC(=O)c2cc(C(C)(C)C)nn2CC)c1OC
[out] Yes
